Multiple publications report pIC50 for MAGL (Homo sapiens); what follows is a combined list.
Numbers only, as −log10 of the molar value.

1) N#Cc1cc(O[C@H]2C[C@@H]3CN(C(=O)N4CC5(CC(n6cnc(C7CC7)n6)C5)C4)C[C@@H]3C2)ccc1F; 7.84

Please supply pIC50 for each of the following items, keeping them in order.
1. O=C(C1CC(COCC2(C(F)(F)F)CC2)C1)N1CC2(CC(n3cnc(C4CC4)n3)C2)C1 (centres unmarked)
2. O=C(N1C[C@H]2C[C@H](Oc3ccc(OC(F)(F)F)cc3)C[C@H]2C1)N1CC2(CC(n3cnc(C4CC4)n3)C2)C1
3. O=C(N1CC(Oc2ccnc(C(F)(F)F)n2)C1)N1CC2(CC(n3cnc(C4CC4)n3)C2)C1
4. O=C(N1CC2(CC(Cc3cc(C(F)(F)F)n[nH]3)C2)C1)N1CC2(CC(n3cnc(C4CC4)n3)C2)C1
5. O=C(N1CC2(CC(n3cnc(C4CC4)n3)C2)C1)N1CC2(C1)CN(S(=O)(=O)c1cnccc1Cl)C2
6. O=C(N1CC2(CCN(Cc3cc(C(F)(F)F)no3)CC2)C1)N1CC2(CC(n3cnc(C(F)(F)F)n3)C2)C1
7. O=C(c1ccco1)N1CCN([C@@H]2CC(=O)N(c3ccc(-c4cccc(F)c4)cc3)C2)CC1

1: 6.26; 2: 8.37; 3: 7.32; 4: 9.92; 5: 7.43; 6: 7.17; 7: 7.94

For each of the items listed, what is its pIC50?
1. CC(C)(C)n1ccnc1CN1CC2(C1)CN(C(=O)N1CC3(CC(n4cnc(C(F)(F)F)n4)C3)C1)C2
2. O=C(N1CC(OCc2ccc(S(F)(F)(F)(F)F)cc2)C1)N1CC2(CC(n3cnc(C4CC4)c3)C2)C1
3. O=C(N1CC2(CC(n3cnc(C4CC4)n3)C2)C1)N1CC2(CC(n3cnc(C(F)(F)F)n3)C2)C1
4. O=C(N1CC2(CC(Oc3cncc(C(F)(F)F)n3)C2)C1)N1CC2(CC(n3cnc(C4CC4)n3)C2)C1
5. O=C(N1CC2(CCN(Cc3ncc(C(F)F)s3)CC2)C1)N1CC2(CC(n3cnc(C4CC4)n3)C2)C1
6. O=C(N1CC2(CC(n3cnc(C4CC4)n3)C2)C1)N1CC2(CN(Cc3nc(CC(F)(F)F)no3)C2)C1
7. CS(=O)(=O)c1cccc(CN2CCC3(CC2)CN(C(=O)N2CC4(CC(n5cnc(C6CC6)n5)C4)C2)C3)c1

7.23
8.01
8.86
9.52
8.54
7.59
7.57

// for each compound in input: emit pIC50
1. O=C(N1CC2(CC(n3cnc(C4CC4)n3)C2)C1)N1CC2(CN(Cc3nnc(C(F)(F)F)s3)C2)C1
2. CCc1nc(C)c(CN2CC3(C2)CN(C(=O)N2CC4(CC(n5cnc(C6CC6)n5)C4)C2)C3)[nH]1
3. O=C(N1CC2(CC(n3cnc(C(F)(F)F)n3)C2)C1)N1CC2(CN(Cc3sncc3C(F)(F)F)C2)C1

1: 7.18; 2: 6.04; 3: 7.98

Need pIC50 for each of these compounds.
1. CS(=N)(=O)c1ccc(CC2CC3(C2)CN(C(=O)N2CC4(CC(n5cnc(C6(O)CC6)n5)C4)C2)C3)cc1 (centres unmarked)
2. CP(C)(=O)c1ccc(COC2CN(C(=O)N3CC4(CC(n5cnc(C6CC6)n5)C4)C3)C2)cc1
3. O=C(N1CC2(CCN(Cc3cc(C(F)(F)F)sn3)CC2)C1)N1CC2(CC(n3cnc(C4(O)CC4)n3)C2)C1
4. O=C(N1CC(OCc2ccc(F)cc2Cl)C1)N1CC2(CC(n3cnc(C4CC4)n3)C2)C1
5. Cn1cnc(C#N)c1CN1CC2(C1)CN(C(=O)N1CC3(CC(n4cnc(C(F)(F)F)n4)C3)C1)C2
6. O=C(N1CC(Oc2cccc(C3CC3)c2Cl)C1)N1CC2(CC(n3cnc(C4CC4)n3)C2)C1

[6.77, 5.97, 7.37, 8.04, 6.20, 9.70]
